Reference source: patent US20100292185A1

- Test System: CTX-M15 β-lactamase (Escherichia coli)
- Construct: expressed as native untagged proteins; made in house; host or cells: E. coli BL21(DE3)
- Sequence (Q9EXV5 entry or part of it): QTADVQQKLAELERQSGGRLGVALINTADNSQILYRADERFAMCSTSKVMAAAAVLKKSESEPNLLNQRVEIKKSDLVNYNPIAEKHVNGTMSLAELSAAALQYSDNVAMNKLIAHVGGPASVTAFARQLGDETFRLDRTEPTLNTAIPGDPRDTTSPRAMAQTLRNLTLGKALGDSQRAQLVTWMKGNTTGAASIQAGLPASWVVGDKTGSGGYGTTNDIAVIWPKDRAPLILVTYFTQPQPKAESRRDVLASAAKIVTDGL
- Assay Summary: β-lactamase enzyme inhibition assay (nitrocefin substrate), CTXM-15
- Type: biochemical
Reported pIC50 values are given for each entry in this list.
Please report pIC50 as the negative decimal logarithm of the molar concentration, giving only the number.

Reported pIC50 ( O=C(N[C@@H](Cc1cccc(C(=O)O)c1O)B(O)O)c1cccc(CN2CCNCC2)c1 ) = 7.70

---

Reported pIC50 values are given for each entry in this list.
- Test System: KPC-2 β-lactamase (Klebsiella pneumoniae, UniProt Q9F663)
- Construct: expressed as native untagged proteins; made in house; host or cells: E. coli BL21(DE3)
- Sequence (Q9F663 25-293 limits assumed): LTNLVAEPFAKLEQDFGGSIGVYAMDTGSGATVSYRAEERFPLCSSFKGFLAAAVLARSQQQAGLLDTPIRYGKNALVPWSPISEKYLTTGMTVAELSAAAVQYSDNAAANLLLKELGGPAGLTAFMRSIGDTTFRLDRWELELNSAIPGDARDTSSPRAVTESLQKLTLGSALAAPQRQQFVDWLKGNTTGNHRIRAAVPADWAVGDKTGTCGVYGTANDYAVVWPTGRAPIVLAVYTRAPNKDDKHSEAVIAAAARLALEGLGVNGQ
- Assay Summary: β-lactamase enzyme inhibition assay (nitrocefin substrate), KPC-2
- Assay type: biochemical
Where a name gives a salt, the structure may show the parent alone.
Please report pIC50 as the negative decimal logarithm of the molar concentration, giving only the number.

Worked examples follow.
Compound	Test System	pIC50
NCc1cccc(C(=O)N[C@@H](Cc2cccc(C(=O)O)c2O)B(O)O)c1 [Example 1, hydrochloride]	KPC-2 β-lactamase (Klebsiella pneumoniae, UniProt Q9F663)	7.70
CNCc1ccc(CC(=O)N[C@@H](Cc2cccc(C(=O)O)c2O)B(O)O)cc1	KPC-2 β-lactamase (Klebsiella pneumoniae, UniProt Q9F663)	7.92

Reported pIC50 ( O=C(Cc1ccc(CN2CCCC2)cc1)N[C@@H](Cc1cccc(C(=O)O)c1O)B(O)O ) = 8.22

Reported pIC50 ( Nc1ccc(CC(=O)N[C@@H](Cc2cccc(C(=O)O)c2O)B(O)O)cn1 ) = 8.52

---

- Test System: SHV-5 β-lactamase (Klebsiella pneumoniae)
- Construct: expressed as native untagged proteins; made in house; host or cells: E. coli BL21(DE3)
- Assay Summary: β-lactamase enzyme inhibition assay (nitrocefin substrate), SHV-5
- Format: biochemical
Reported Endpoint: pIC50
Please report pIC50 as the negative decimal logarithm of the molar concentration, giving only the number.

Worked examples follow.
Molecule	Test System	pIC50
CC(=O)Nc1ccc(C(=O)N[C@@H](Cc2cccc(C(=O)O)c2O)B(O)O)cn1 [Example 10]	SHV-5 β-lactamase (Klebsiella pneumoniae)	6.50
NCc1ccc(CC(=O)N[C@@H](Cc2cccc(C(=O)O)c2O)B(O)O)cc1 [Example 30]	SHV-5 β-lactamase (Klebsiella pneumoniae)	8.52
CN(C)Cc1cccc(C(=O)N[C@@H](Cc2cccc(C(=O)O)c2O)B(O)O)c1 [Example 27]	SHV-5 β-lactamase (Klebsiella pneumoniae)	6.51

Reported pIC50 ( Cc1cc(NCc2cccc(C(=O)N[C@@H](Cc3cccc(C(=O)O)c3O)B(O)O)c2)no1 [Example 28] ) = 7.82

Reported pIC50 ( Cl.Nc1cncc(C(=O)N[C@@H](Cc2cccc(C(=O)O)c2O)B(O)O)c1 [Example 44, hydrochloride] ) = 7.15

---

- Test system: E. cloacae expressing the Class C P99+
- Assay Summary: In vitro antibacterial assay of β-lactamase inhibition (broth microdilution MIC), E. cloacae P99+
- Type: cell-based
- Experimental Context: in presence of Ceftazidime 8 μg/ml (Examples 1-56)
Where a name gives a salt, the structure may show the parent alone.
Reported Endpoint: MIC of example compound, E. cloacae P99+ (µg/mL)
Just the number please, in µg/mL, no unit attached.

Compound	Test System	MIC of example compound, E. cloacae P99+, µg/mL
Cl.O=C(N[C@@H](Cc1cccc(C(=O)O)c1O)B(O)O)c1ccc(CNCCO)cc1	E. cloacae expressing the Class C P99+	0.25
NCc1cccc(C(=O)N[C@@H](Cc2cccc(C(=O)O)c2O)B(O)O)c1 [Example 1, hydrochloride]	E. cloacae expressing the Class C P99+	0.25
O=C(N[C@@H](Cc1cccc(C(=O)O)c1O)B(O)O)c1cccc(CN2CCNCC2)c1	E. cloacae expressing the Class C P99+	2

The value of MIC of example compound, E. cloacae P99+ recorded for Cl.O=C(N[C@@H](Cc1cccc(C(=O)O)c1O)B(O)O)c1ccc(N2CCNCC2)nc1 when tested on E. cloacae expressing the Class C P99+ reads 0.25

The value of MIC of example compound, E. cloacae P99+ recorded for Nc1cccc[n+]1Cc1ccc(CC(=O)N[C@@H](Cc2cccc(C(=O)O)c2O)B(O)O)cc1 when tested on E. cloacae expressing the Class C P99+ reads 2

The value of MIC of example compound, E. cloacae P99+ recorded for CC(=O)N(CCN)Cc1cccc(C(=O)N[C@@H](Cc2cccc(C(=O)O)c2O)B(O)O)c1 when tested on E. cloacae expressing the Class C P99+ reads 1

The value of MIC of example compound, E. cloacae P99+ recorded for Cl.Nc1cc(C(=O)N[C@@H](Cc2cccc(C(=O)O)c2O)B(O)O)ccn1 when tested on E. cloacae expressing the Class C P99+ reads 0.5

The value of MIC of example compound, E. cloacae P99+ recorded for O=C(N[C@@H](Cc1cccc(C(=O)O)c1O)B(O)O)c1cccc(CNCc2cccnc2)c1 when tested on E. cloacae expressing the Class C P99+ reads 2

The value of MIC of example compound, E. cloacae P99+ recorded for CNCc1ccc(C(=O)N[C@@H](Cc2cccc(C(=O)O)c2O)B(O)O)cc1.Cl when tested on E. cloacae expressing the Class C P99+ reads 0.25

The value of MIC of example compound, E. cloacae P99+ recorded for NCc1ccc(CC(=O)N[C@@H](Cc2cccc(C(=O)O)c2O)B(O)O)cc1 when tested on E. cloacae expressing the Class C P99+ reads 0.12

The value of MIC of example compound, E. cloacae P99+ recorded for CCC(=O)C(=O)N[C@@H](Cc1cccc(C(=O)O)c1O)B(O)O when tested on E. cloacae expressing the Class C P99+ reads 2

The value of MIC of example compound, E. cloacae P99+ recorded for O=C(Cc1ccc(CNCCO)cc1)N[C@@H](Cc1cccc(C(=O)O)c1O)B(O)O when tested on E. cloacae expressing the Class C P99+ reads 0.5

The value of MIC of example compound, E. cloacae P99+ recorded for NCc1cccc(CC(=O)N[C@@H](Cc2cccc(C(=O)O)c2O)B(O)O)c1 when tested on E. cloacae expressing the Class C P99+ reads 0.12

The value of MIC of example compound, E. cloacae P99+ recorded for CCNCc1ccc(C(=O)N[C@@H](Cc2cccc(C(=O)O)c2O)B(O)O)cc1.Cl when tested on E. cloacae expressing the Class C P99+ reads 0.25

The value of MIC of example compound, E. cloacae P99+ recorded for NCCNCc1ccc(CC(=O)N[C@@H](Cc2cccc(C(=O)O)c2O)B(O)O)cc1 when tested on E. cloacae expressing the Class C P99+ reads 0.25

The value of MIC of example compound, E. cloacae P99+ recorded for O=C(N[C@@H](Cc1cccc(C(=O)O)c1O)B(O)O)c1ccc(CN2CCNCC2)cc1 [Example 5, Hydrochloride] when tested on E. cloacae expressing the Class C P99+ reads 2

The value of MIC of example compound, E. cloacae P99+ recorded for Cl.Nc1nc(/C(=N/O)C(=O)N[C@@H](Cc2cccc(C(=O)O)c2O)B(O)O)cs1 when tested on E. cloacae expressing the Class C P99+ reads 2

---

- Test System: SHV-5 β-lactamase (Klebsiella pneumoniae, UniProt P0A3M1)
- Construct: expressed as native untagged proteins; made in house; host or cells: E. coli BL21(DE3)
- Sequence (P0A3M1 22-286): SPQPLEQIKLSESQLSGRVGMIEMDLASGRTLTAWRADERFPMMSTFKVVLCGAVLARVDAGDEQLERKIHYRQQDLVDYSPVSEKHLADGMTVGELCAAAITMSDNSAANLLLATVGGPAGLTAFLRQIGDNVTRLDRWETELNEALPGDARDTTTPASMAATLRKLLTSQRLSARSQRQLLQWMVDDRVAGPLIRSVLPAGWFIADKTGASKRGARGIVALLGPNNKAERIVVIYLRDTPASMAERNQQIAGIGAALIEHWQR
- Assay Summary: β-lactamase enzyme inhibition assay (nitrocefin substrate), SHV-5
- Assay type: biochemical
Structures can show the parent of a compound that is named as a salt.
Reported Endpoint: IC50 (nM)
Just the number please, in nM, no unit attached.

Compound	Unit String	IC50
O=C(Cc1ccc(CN2CCNCC2)cc1)N[C@@H](Cc1cccc(C(=O)O)c1O)B(O)O [Example 37]	nM	2
CNCc1cccc(C(=O)N[C@@H](Cc2cccc(C(=O)O)c2O)B(O)O)c1 [Example 21]	nM	830
Nc1ccc(CC(=O)N[C@@H](Cc2cccc(C(=O)O)c2O)B(O)O)cn1 [Example 46]	nM	0.7
CO/N=C(\C(=O)N[C@@H](Cc1cccc(C(=O)O)c1O)B(O)O)c1csc(NC(=O)CN)n1.Cl [Example 51, hydrochloride]	nM	15

Reported IC50 ( NCCNCc1ccc(CC(=O)N[C@@H](Cc2cccc(C(=O)O)c2O)B(O)O)cc1 [Example 35] ) = 2

Reported IC50 ( O=C(N[C@@H](Cc1cccc(C(=O)O)c1O)B(O)O)c1cccc(CNc2nccs2)c1 [Example 31] ) = 13

Reported IC50 ( C[N+]1(Cc2ccc(CC(=O)N[C@@H](Cc3cccc(C(=O)O)c3O)B(O)O)cc2)CCOCC1 [Example 41, formate] ) = 4

Reported IC50 ( CO/N=C(\C(=O)N[C@@H](Cc1cccc(C(=O)O)c1O)B(O)O)c1csc(NC(=O)[C@@H](N)CCCCN)n1 [Example 52, hydrochloride] ) = 26

Reported IC50 ( CN(C)Cc1ccc(CC(=O)N[C@@H](Cc2cccc(C(=O)O)c2O)B(O)O)cc1 [Example 36] ) = 2

Reported IC50 ( N=C(N)c1ccc(CC(=O)N[C@@H](Cc2cccc(C(=O)O)c2O)B(O)O)cc1 [Example 62, formate salt] ) = 2
